Target Or Test System: EGFR T790M/L858R Ba/F3 cell line (Homo sapiens, UniProt P00533, T790M/L858R, cells depend on it)
Sequence (P00533 whole entry T790M/L858R): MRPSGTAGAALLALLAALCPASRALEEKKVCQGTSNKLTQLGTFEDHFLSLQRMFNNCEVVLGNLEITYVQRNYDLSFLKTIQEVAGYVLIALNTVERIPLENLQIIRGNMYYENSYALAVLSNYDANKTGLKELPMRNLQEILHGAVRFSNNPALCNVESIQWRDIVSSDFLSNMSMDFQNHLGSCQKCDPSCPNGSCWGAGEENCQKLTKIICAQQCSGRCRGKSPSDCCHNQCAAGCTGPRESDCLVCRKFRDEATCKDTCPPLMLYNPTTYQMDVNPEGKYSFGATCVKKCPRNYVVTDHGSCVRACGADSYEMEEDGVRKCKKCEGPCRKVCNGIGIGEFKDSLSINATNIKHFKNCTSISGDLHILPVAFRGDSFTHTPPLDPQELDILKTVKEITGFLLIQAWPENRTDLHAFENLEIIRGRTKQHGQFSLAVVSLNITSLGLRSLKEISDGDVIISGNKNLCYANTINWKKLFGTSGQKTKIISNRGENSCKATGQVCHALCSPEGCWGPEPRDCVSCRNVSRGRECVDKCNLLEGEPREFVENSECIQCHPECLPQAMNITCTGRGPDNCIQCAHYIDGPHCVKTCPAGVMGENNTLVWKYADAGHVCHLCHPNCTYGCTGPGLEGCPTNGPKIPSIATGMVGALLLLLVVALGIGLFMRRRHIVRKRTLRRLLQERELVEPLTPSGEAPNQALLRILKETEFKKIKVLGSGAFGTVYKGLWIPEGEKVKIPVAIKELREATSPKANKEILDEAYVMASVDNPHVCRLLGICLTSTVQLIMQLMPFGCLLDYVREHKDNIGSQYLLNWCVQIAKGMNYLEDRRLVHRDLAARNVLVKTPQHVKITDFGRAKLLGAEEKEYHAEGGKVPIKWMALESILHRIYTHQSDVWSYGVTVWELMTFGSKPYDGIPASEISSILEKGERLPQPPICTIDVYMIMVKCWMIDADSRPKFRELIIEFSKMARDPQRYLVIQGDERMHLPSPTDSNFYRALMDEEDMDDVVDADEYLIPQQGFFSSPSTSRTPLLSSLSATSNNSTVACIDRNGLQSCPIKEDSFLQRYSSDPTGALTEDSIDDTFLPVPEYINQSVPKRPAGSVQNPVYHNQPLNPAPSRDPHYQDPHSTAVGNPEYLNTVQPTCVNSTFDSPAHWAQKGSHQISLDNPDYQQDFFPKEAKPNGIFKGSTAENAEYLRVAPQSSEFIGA
Assay Details: Ba/F3 cell proliferation model (MTS assay)
Format: cell-based, murine
Settings: absence of cetuximab; read-out: Ba/F3 cellular activity (EC50) T790M/L858R
pEC50: −log10 of the molar value.
Record form. Attribute: pEC50. Fill in for each entry.

Exercise: Need pEC50 of C=CC(=O)Nc1ccc2c(c1)N(Cc1ccccc1)C(=O)c1cc(-c3ccc4[nH]ccc4c3)ccc1N2 [Compound I-1] , thanks.
Solution: ≤ 6.12

Exercise: Need pEC50 of O=C(CCl)Nc1ccc2c(c1)N(Cc1ccccc1)C(=O)c1cc(-c3ccc4[nH]ccc4c3)ccc1N2 [Compound I-2] , thanks.
Solution: > 6.60

Exercise: Need pEC50 of O=C1c2cc(Br)ccc2Nc2ccc(F)cc2N1Cc1ccccc1 [I-a] , thanks.
Solution: ≤ 6.12

Exercise: Need pEC50 of C=CC(=O)Nc1ccc2c(c1)N(Cc1ccccc1)C(=O)c1cc(-c3ccc(N4CCNCC4)cc3)ccc1N2 [Compound I-3] , thanks.
Solution: ≤ 6.12
